Test: chemical genetic growth profiling, strain panel (AID 1159580);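 note: tested at 20 µM; growth read once vehicle control cultures reached saturation at 30 °C; 1 = growth at the plate median or of vehicle wells; lower values mean less growth of the strain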
Conditions: S. cerevisiae deletion strains, growth OD, locus YKL101W, strain HSL1, hits give low values
Among all 5,500 compounds or so, about 2,000 (36%) were called active. Roughly 18% stayed inconclusive and do not appear here. The list shows a part of the results.
Define the label as yes (1) when normalized growth is strictly less than 0.9 and as no (0) in all remaining cases.

[
  {
    "MOL SMILES": "CC(C)(C)NC(=S)N/N=C\\c1cc(Br)c(O)c(Br)c1",
    "CLASS NAME": "no (0)"
  },
  {
    "MOL SMILES": "O=C(O/N=C1/CCCc2[nH]c3ccccc3c21)c1ccc(Cl)cc1Cl",
    "CLASS NAME": "no (0)"
  },
  {
    "MOL SMILES": "CO/N=C1/CC(C)(C)Cc2c(-c3ccn(C(=O)Nc4cccc(Cl)c4)n3)sc(SC)c21",
    "CLASS NAME": "no (0)"
  },
  {
    "MOL SMILES": "FC(F)(F)Oc1ccc(OCc2n[nH]c(=S)n2-c2ccc(Cl)cc2)cc1",
    "CLASS NAME": "no (0)"
  },
  {
    "MOL SMILES": "CCn1nc(C)cc1C(=O)Sc1cccc(Br)c1",
    "CLASS NAME": "yes (1)"
  }
]

These entries and their values trace back to PubChem BioAssay AID1159580.
